Recorded pKi values for a group of compounds are listed next.
Target: carboxypeptidase T (CPT) (Thermoactinomyces vulgaris, UniProt P29068)
pKi is defined as minus the log10 of a concentration measured in mol/L.

Here are 3 compounds together with their reported answers.
NS(=O)(=O)N[C@@H](CCC(=O)O)C(=O)O ... 2.51
NS(=O)(=O)N[C@@H](Cc1ccccc1)C(=O)O ... 4.45
N=C(N)NCCC[C@H](NS(N)(=O)=O)C(=O)O ... 3.47

Please find the next compound below.
In: Give recorded pKi. CC(C)C[C@H](NS(N)(=O)=O)C(=O)O
Out: 5.05
